molecular target: rabbit Imidazoline 2 Central (I2C), CKB (gene 100009085) (UniProt P00567); assay: NVS_ENZ_rabI2C: NovaScreen (NVS) Enzymatic Assay for rabbit Imidazoline 2 Central (I2C) (AID 2283228)
Sequence (P00567 whole entry, looked up): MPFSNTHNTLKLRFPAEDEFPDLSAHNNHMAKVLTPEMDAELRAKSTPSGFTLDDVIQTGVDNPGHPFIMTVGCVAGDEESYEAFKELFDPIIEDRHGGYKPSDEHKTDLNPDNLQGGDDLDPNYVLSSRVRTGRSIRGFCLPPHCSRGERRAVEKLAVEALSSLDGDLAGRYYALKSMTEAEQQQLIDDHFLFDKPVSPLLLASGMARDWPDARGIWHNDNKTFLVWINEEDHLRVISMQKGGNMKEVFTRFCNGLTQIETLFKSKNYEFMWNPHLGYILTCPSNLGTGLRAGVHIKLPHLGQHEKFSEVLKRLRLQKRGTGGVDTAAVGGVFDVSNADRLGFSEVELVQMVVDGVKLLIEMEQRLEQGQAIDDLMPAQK
Results filed as inconclusive are left out. The source made the active and inactive calls. How the source made its calls: active means hit-call score of the fitted dose curve at least 0.9, where 1 is the maximum; inconclusive means response in the unintended direction; inactive means score below 0.9.
QUANTITY: AC50

Cc1nccn1-c1ccc(Sc2cccc(C3(C(N)=O)CCOCC3)c2)cc1 ... 9.43 µM (active)
COc1cc(C(C)C)c2c(c1)S(=O)(=O)N(COc1cc(=O)n3cccc(OCCN4CCCCC4)c3n1)C2=O ... inactive
CC(C)C(=O)Nc1ccc([N+](=O)[O-])c(C(F)(F)F)c1 ... inactive
c1ccc(C(O[C@@H]2CCCN(CCc3ccc4c(c3)OCO4)C2)c2ccccc2)cc1 ... 4.09 µM (active)
CCCCC(CC)C(=O)OCCOCCOCCOC(=O)C(CC)CCCC (stereo unspecified) ... inactive

Moving on to another molecule below.
Per the record, O=C(O)c1cccc(C[C@@H]2COc3ccc(OCc4nc5cc(F)ccc5s4)cc3[C@@H]2O)c1 has AC50 of inactive

---

read-out: Cytochrome P450 (CYP24A1), CYP24A1 (gene 1591); assay: LTEA_HepaRG_CYP24A1: Life Technologies and Expression Analysis (LTEA) Assay for Cytochrome P450 (CYP24A1) using HepaRG (AID 2283478); details: mRNA level, 48 h; actives raise or lower the signal
The source made the active and inactive calls. How the source made its calls: active means hit-call score of the fitted dose curve at least 0.9, where 1 is the maximum; inactive means score below 0.9.
QUANTITY: outcome

Consider the reported outcome for these molecules:
Cn1cc[nH]c1=S ... inactive
OC[C@H]1O[C@@H]2O[C@H]3[C@H](O)[C@@H](O)[C@@H](O[C@H]4[C@H](O)[C@@H](O)[C@@H](O[C@H]5[C@H](O)[C@@H](O)[C@@H](O[C@H]6[C@H](O)[C@@H](O)[C@@H](O[C@H]7[C@H](O)[C@@H](O)[C@@H](O[C@H]1[C@H](O)[C@H]2O)O[C@@H]7CO)O[C@@H]6CO)O[C@@H]5CO)O[C@@H]4CO)O[C@@H]3CO ... inactive
OCC(CO)(CO)CO ... inactive
CCc1ccc(O)c(C(C)(C)C)c1 ... inactive
CCn1nc(C)c2c1C(=O)NCC(c1ccc(O)cc1)=N2 ... inactive

Briefly, outcome measured for CCCCCOC(C)=O : inactive

Measured outcome, C[C@@H](Oc1ccc(CNC(=O)c2cccnc2Oc2ccc3c(c2)OCO3)c(F)c1)C(=O)O : inactive

Record CC(C)CC(C)O (stereo unspecified) , field outcome: inactive

What the record says about c1ccc2c(c1)-c1cccc3c1c-2cc1ccccc13 : outcome is inactive

Measured outcome of OCc1ccccc1 : inactive

Short answer for CCCCCCCCCC : outcome was inactive

Value of measured outcome for the entry COc1cc2c(c(OC)c1OC)-c1ccc(OC)c(=O)cc1[C@@H](NC(C)=O)CC2 : inactive

The value of outcome measured for the molecule c1ccc(C(O[C@@H]2CCCN(CCc3ccc4c(c3)OCO4)C2)c2ccccc2)cc1 turned out to be inactive

Per the record, Cc1nc(-c2ccccn2)ncc1C(=O)Nn1cc(C)c2cc(F)ccc21 has outcome of inactive

Input COCc1nnc(-c2ccc[n+]([O-])c2)n1-c1c(Cl)c(Cl)cc2[nH]c(=O)c(=O)[nH]c12 . Output outcome: inactive

Reported outcome of NC(=O)N(O)[C@@H]1COc2cc(OCc3ccccc3)ccc21 : inactive

outcome recorded for this molecule, Cc1ncc([C@@H](CCCCCCc2ccc3c(n2)NCCC3)CC(=O)O)cn1 , is inactive

---

experiment: BSK_3C_Vis: BioMAP Diversity Plus: 3C Assay for Morphology Visualization (AID 2283025); settings: primary human endothelial cells (HUVEC);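 further: fitted both ways so gain or loss versus DMSO counts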
Activity calls are given as the source filed them. Rule for the calls: active = hit-call score of the fitted dose curve at least 0.9, where 1 is the maximum; inactive = score below 0.9.
I would appreciate it if you answered using one of these outcomes: active, inactive

Input: Write down the call the test reported for this molecule. Item: CCN(CC)C(=S)SSC(=S)N(CC)CC
Output: active

Input: What did this assay record as the result for OCCNCCO ?
Output: inactive

Input: Status in this test for Cc1cccc(O)c1C ?
Output: inactive

Input: Could you please tell me the result logged for c1ccc2ncccc2c1 in this assay?
Output: inactive

Input: For O=C(O)c1cccc(C[C@@H]2COc3ccc(OCc4nc5cc(F)ccc5s4)cc3[C@@H]2O)c1 , which call appears in the assay record?
Output: inactive

Input: Test call, this molecule: c1ccc(C(O[C@@H]2CCCN(CCc3ccc4c(c3)OCO4)C2)c2ccccc2)cc1
Output: active

Input: I would be grateful if you could indicate the recorded call for OCc1ccccc1 .
Output: inactive

Input: Record lookup: outcome of this test for OCc1c[nH]c2ccccc12 ?
Output: active

Input: Which outcome was entered for the molecule CCCCCCCC1CCC(=O)O1 (configuration not stated) in this test?
Output: inactive

Input: Hello, I am checking results. What call was entered for OCCOCCOCCO ?
Output: inactive

Input: Recorded call for Cc1nc(-c2ccccn2)ncc1C(=O)Nn1cc(C)c2cc(F)ccc21 ?
Output: inactive

Input: What classification did OC(Cn1cncn1)(Cn1cncn1)c1ccc(F)cc1F end up with in this test?
Output: inactive

Input: For CCCOc1ccc(S(=O)(=O)N2CCN(CC)CC2)cc1-c1nc2c(CC)n(Cc3ccccn3)nc2c(=O)[nH]1 , what call appears in the results of this test?
Output: inactive

Input: What did the test return for CCCCCCCCCCCCCCO ?
Output: active

Input: Assay result, entry NC(=O)NN=Cc1ccc([N+](=O)[O-])o1 — outcome?
Output: inactive

Input: For this molecule, state the assay outcome: COc1cc2c(c(OC)c1OC)-c1ccc(OC)c(=O)cc1[C@@H](NC(C)=O)CC2
Output: active

Input: Check the results log: what was the call for CC(C)c1nnc2ccc(-c3ocnc3-c3cc(F)ccc3F)cn12 ?
Output: inactive

---

test: ATG_E_Box_CIS: Attagene CIS-FACTORIAL HepG2 Assay for human Enhancer Box (E-box) (AID 2282936); settings: HepG2 E-box cis-reporter transcription, actives raise or lower the signal
Activity calls are given as the source filed them. The calls were made as follows: active = hit-call score of the fitted dose curve at least 0.9, where 1 is the maximum; inactive = score below 0.9.
Assign a class; possible classes are yes (active), no (inactive)

Input: Short answer needed: outcome of this test for CCCCCCCC/C=C\CCCCCCCC(=O)OC[C@@H](O)[C@H]1OC[C@H](O)[C@H]1O ?
Output: no

Input: Hi, do you know how COCc1nnc(-c2ccc[n+]([O-])c2)n1-c1c(Cl)c(Cl)cc2[nH]c(=O)c(=O)[nH]c12 came out in this test?
Output: no

Input: What was the test verdict on CCCC(CCC)C(=O)O ?
Output: no

Input: Please state the recorded outcome for this molecule: C[C@]12C=CC(=O)C=C1CC[C@H]1[C@@H]3C[C@@H](O)[C@](O)(C(=O)CO)[C@@]3(C)C[C@H](O)[C@@]12F
Output: no

Input: Called result for FC(F)C(F)(F)COCC1CO1 (stereo unspecified)
Output: no

Input: Call for entry CCN(CC)C(=S)SSC(=S)N(CC)CC :
Output: yes

---

read-out: Paternally Expressed 10 (PEG10), PEG10 (gene 23089); assay: LTEA_HepaRG_PEG10: Life Technologies and Expression Analysis (LTEA) Assay for Paternally Expressed 10 (PEG10) using HepaRG (AID 2283520); conditions: mRNA level, 48 h; actives raise or lower the signal
Calls of active or inactive are those of the source. The calls were made as follows: active = hit-call score of the fitted dose curve at least 0.9, where 1 is the maximum; inactive = score below 0.9.
Please state which outcome applies, choosing from 1 (yes) for active, 0 (no) for inactive

Input: What did the test return for CCn1nc(C)c2c1C(=O)NCC(c1ccc(O)cc1)=N2 ?
Output: 0 (no)

Input: Call for entry O=C(NO)C1(NS(=O)(=O)c2ccc(Oc3ccc(F)cc3)cc2)CCOCC1 :
Output: 1 (yes)

Input: What call does the record list for CCCCC(CC)C(=O)OCCOCCOCCOC(=O)C(CC)CCCC (stereo unspecified) ?
Output: 0 (no)

Input: Dear all, I need the recorded test outcome for COS(C)(=O)=O , thank you.
Output: 0 (no)

Input: Status in this test for O=C1CN(N=Cc2ccc([N+](=O)[O-])o2)C(=O)N1 ?
Output: 0 (no)

Input: I would be grateful if you could indicate the recorded call for OCCNCCO .
Output: 0 (no)

Input: Returns: the outcome recorded for CC(C)CCCCCCOC(=O)C1CCCCC1C(=O)OCCCCCCC(C)C (stereo unspecified) in this assay.
Output: 0 (no)

Input: Tell me the recorded outcome of this test for CC1(C)C(=O)N(Cl)C(=O)N1Cl .
Output: 0 (no)

Input: Dear colleague, could you share the recorded outcome for O=C(O)c1cccc(C(=O)O)c1 when you have a moment?
Output: 0 (no)

Input: Short answer needed: outcome of this test for c1ccc2c(c1)-c1cccc3c1c-2cc1ccccc13 ?
Output: 1 (yes)

Input: Any idea what this test logged for CCN(CC)C(=S)SSC(=S)N(CC)CC ?
Output: 0 (no)

Input: Dear colleague, could you share the recorded outcome for NC(=O)N1c2ccccc2C=Cc2ccccc21 when you have a moment?
Output: 0 (no)

Input: GET /call?item= Cn1cc[nH]c1=S returns the recorded outcome of this test.
Output: 0 (no)

Input: What was the test verdict on CCCCCOC(C)=O ?
Output: 0 (no)

Input: What classification did C[C@@H](Oc1ccc(CNC(=O)c2cccnc2Oc2ccc3c(c2)OCO3)c(F)c1)C(=O)O end up with in this test?
Output: 0 (no)

Input: Tell me the assay call for CC(C)CC(C)O (stereo unspecified) please.
Output: 0 (no)

Input: Query: recorded result category for CC(C)c1nnc2ccc(-c3ocnc3-c3cc(F)ccc3F)cn12 in this test
Output: 0 (no)

Input: What is the recorded call for this compound in the test? Cc1ccc(S(=O)(=O)NC(=O)NN2CCCCCC2)cc1
Output: 0 (no)

Input: Each compound tested received a call. Report the one for COc1cc2c(c(OC)c1OC)-c1ccc(OC)c(=O)cc1[C@@H](NC(C)=O)CC2 .
Output: 1 (yes)

Input: Assay outcome for NNC(=O)c1ccncc1 : what was it?
Output: 0 (no)

Input: Per the records of this test, what outcome belongs to CCCCCCCC/C=C\CCCCCCCC(=O)OC[C@@H](O)[C@H]1OC[C@H](O)[C@H]1O ?
Output: 0 (no)

Input: Can you look up the reported call for CCc1ccc(O)c(C(C)(C)C)c1 for me?
Output: 0 (no)

Input: Which result was noted for this compound in the test: C[C@]12C=CC(=O)C=C1CC[C@H]1[C@@H]3C[C@@H](O)[C@](O)(C(=O)CO)[C@@]3(C)C[C@H](O)[C@@]12F
Output: 0 (no)

Input: Which result was noted for this compound in the test: O=S(=O)(O)c1ccc(N=Nc2c(O)ccc3cc(S(=O)(=O)O)ccc23)cc1
Output: 0 (no)

Input: State the result this test recorded for CCCCCCCCCC .
Output: 0 (no)

Input: Can you look up the reported call for O=C(O)[C@H](O)[C@@H](O)C(=O)O for me?
Output: 0 (no)

Value source: PubChem BioAssay (EPA / NIEHS)
